Target: T1, recombinant human LAG-3-his protein (Novoprotein) (human, UniProt P18627 23-450)
T1 construct: Bought; also called huLAG-3; not shown: His tag
T1 sequence (looked up): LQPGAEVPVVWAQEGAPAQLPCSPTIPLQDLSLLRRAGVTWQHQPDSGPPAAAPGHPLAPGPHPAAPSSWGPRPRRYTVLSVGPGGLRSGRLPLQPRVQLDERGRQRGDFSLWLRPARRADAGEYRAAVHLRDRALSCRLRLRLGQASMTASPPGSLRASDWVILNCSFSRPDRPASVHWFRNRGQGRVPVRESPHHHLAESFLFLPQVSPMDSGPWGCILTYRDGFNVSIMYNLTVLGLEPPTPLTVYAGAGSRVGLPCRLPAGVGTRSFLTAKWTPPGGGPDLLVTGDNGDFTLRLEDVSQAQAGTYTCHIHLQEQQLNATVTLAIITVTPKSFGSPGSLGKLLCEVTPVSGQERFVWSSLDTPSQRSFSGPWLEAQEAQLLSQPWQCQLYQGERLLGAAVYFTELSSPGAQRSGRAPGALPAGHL
Experiment: BLI Octet, Ab on AHC sensor, huLAG-3-his; test group 1
MEASURE: off-rate ratio to that of mAb747c (%)
Report the value in % with no unit label.

These solved cases illustrate the format of a correct answer.
| BINDER | UNIT_NAME | QUANTITATIVE_READOUT |
| --- | --- | --- |
| mAb747c (antibody, V domains shown, also called mAb717c) VH: EVQLQQSGAELVRPGASVKLSCTASDFNIKDDYMHWVKQRPEQGLDWIGWIVPENGNTEYASKFQGKATITADTSSNTAYLQLSSLTSEDTAVYYCTVYGDYWGQGTTLTVSS VL: DIQMTQSPSSLSASLGERVSLNCRASQEISGYLSWLQQKPDGTIKRLIYAASTLDSGVPKRFSGSRSGSDYSLTISSLESEDFAAYYCLQYASYPLTFGAGTKLELK | % | 100 |
| HumAb747-48 (antibody, human IgG1, V domains shown, humanized mAb747; human IgG1/kappa constant domains) VH: EVQLVQSGAEVKKPGATVKLSCKASDFNIKDDYMHWVQQAPGKGLEWIGWIVPENGNTEYASKFQGRVTITADTSTDTAYLELSSLRSEDTAVYYCTVYGDYWGQGTTVTVSS VL: DIQMTQSPSSLSASVGDRVTITCRASQEISGYLSWLQQKPGKAIKRLIYAASTLDSGVPSRFSGSRSGTDFTLTISSLQPEDFATYYCLQYASYPLTFGQGTKLEIK | % | 592 |
| HumAb747-44 (antibody, human IgG1, V domains shown, humanized mAb747; human IgG1/kappa constant domains) VH: EVQLVQSGAEVKKPGATVKLSCKASDFNIKDDYMHWVQQAPGKGLEWIGWIVPENGNTEYASKFQGRVTITADTSTDTAYLELSSLRSEDTAVYYCTVYGDYWGQGTTVTVSS VL: DIQMTQSPSSLSASVGDRVTITCRASQEISGYLSWLQQKPGKAIKSLIYAASTLDSGVPSRFSGSRSGTDFTLTISSLQPEDFATYYCLQYASYPLTFGQGTKLEIK | % | 809 |

Proceeding to the next binder to report its off-rate ratio to that of mAb747c.
# lookup: off-rate ratio to that of mAb747c of HumAb747-43 (antibody, human IgG1, V domains shown, humanized mAb747; human IgG1/kappa constant domains) VH: EVQLVQSGAEVKKPGATVKISCKVSDFNIKDDYMHWVQQAPGKGLEWIGWIVPENGNTEYASKFQGRVTITADTSTDTAYLELSSLRSEDTAVYYCTVYGDYWGQGTTVTVSS VL: DIQMTQSPSSLSASVGDRVTITCRASQEISGYLSWLQQKPGKAIKSLIYAASTLDSGVPSRFSGSRSGTDFTLTISSLQPEDFATYYCLQYASYPLTFGQGTKLEIK
682
